# Read-out: MicroRNA 122 (MIR122), gene 406906
# method: LTEA_HepaRG_MIR122: Life Technologies and Expression Analysis (LTEA) Assay for MicroRNA 122 (MIR122) using HepaRG (AID 2283516); also: the transcript read is the microRNA miR-122
# conditionNotes: mRNA level, 48 h; actives raise or lower the signal
# Description: LTEA_HepaRG is a cell based, multiplexed-readout assay that uses HepaRG, a human liver cell line, with measurements taken at 48 hours after chemical dosing on a 96-well plate.LTEA_HepaRG_MIR122 is one of 102 assay component(s) measured in the LTEA HepaRG cell culture assay. It is a marker of MicroRNA.Data from the assay component LTEA_HepaRG_MIR122 was analyzed into 1 endpoint. […]
Activity calls are given as the source filed them. The calls were made as follows: active = hit-call score of the fitted dose curve at least 0.9, where 1 is the maximum; inactive = score below 0.9.
experimentalEndpoint: AC50

Use the examples below as a reference point.
[
  {
    "molecule": "COP(=S)(OC)Oc1ccc(SC)c(C)c1",
    "experimentalEndpoint": "AC50",
    "obsValue": "inactive"
  },
  {
    "molecule": "O=S1OCC2C(CO1)C1(Cl)C(Cl)=C(Cl)C2(Cl)C1(Cl)Cl (stereo not drawn)",
    "experimentalEndpoint": "AC50",
    "obsValue": "89.1 µM (active)"
  },
  {
    "molecule": "O=C1c2ccccc2C(=O)N1SC(Cl)(Cl)Cl",
    "experimentalEndpoint": "AC50",
    "obsValue": "inactive"
  },
  {
    "molecule": "OCCOc1ccccc1",
    "experimentalEndpoint": "AC50",
    "obsValue": "inactive"
  },
  {
    "molecule": "O=C(Nc1ccccc1)Nc1cnns1",
    "experimentalEndpoint": "AC50",
    "obsValue": "69.2 µM (active)"
  }
]

Param item = `COP(=S)(OC)Oc1ccc([N+](=O)[O-])cc1` ; retrieve measured AC50.
inactive

Try the molecule `O=[N+]([O-])/N=C1\NCCN1Cc1ccc(Cl)nc1`
23.9 µM (active)

Try the molecule `CC(C)N(C(=O)COc1nnc(C(F)(F)F)s1)c1ccc(F)cc1`
inactive

Try the molecule `CCc1ccc(C(=O)NN(C(=O)c2cc(C)cc(C)c2)C(C)(C)C)cc1`
inactive

Try the molecule ClC1C(Cl)C(Cl)C(Cl)C(Cl)C1Cl (stereo not drawn)
inactive

Try the molecule CC(C)(C)C(O)C(Oc1ccc(Cl)cc1)n1cncn1 (stereo not drawn)
inactive

Try the molecule `CCN(CC)C(=O)SCc1ccc(Cl)cc1`
inactive

Try the molecule `CCOCN(C(=O)CCl)c1c(C)cccc1CC`
50 µM (active)

----------
# Read-out: Interleukin-1 alpha (IL1a), IL1A (gene 3552)
# method: BSK_LPS_IL1a: BioMAP Diversity Plus: LPS Assay for Interleukin-1 alpha (IL1a) Biomarker Activity (AID 2283080)
# conditionNotes: primary human HUVEC with PBMC; actives raise or lower the signal
Calls of active or inactive are those of the source. Rule for the calls: active = hit-call score of the fitted dose curve at least 0.9, where 1 is the maximum; inactive = score below 0.9.
experimentalEndpoint: AC50

Use the examples below as a reference point.
[
  {
    "compound": "Oc1ccc(Cl)cc1Cc1ccccc1",
    "experimentalEndpoint": "AC50",
    "obsValue": "31.8 µM (active) [middle of 6 runs]"
  },
  {
    "compound": "CCN(CC)C(=O)SCc1ccc(Cl)cc1",
    "experimentalEndpoint": "AC50",
    "obsValue": "inactive"
  },
  {
    "compound": "CN1CSC(=S)N(C)C1",
    "experimentalEndpoint": "AC50",
    "obsValue": "12.8 µM (active)"
  },
  {
    "compound": "CC1(c2ccc(Oc3ccccc3)cc2)OC(=O)N(Nc2ccccc2)C1=O (configuration not stated)",
    "experimentalEndpoint": "AC50",
    "obsValue": "inactive"
  },
  {
    "compound": "O=C1c2ccccc2C(=O)N1SC(Cl)(Cl)Cl",
    "experimentalEndpoint": "AC50",
    "obsValue": "inactive"
  }
]

Param item = CCC(C)(NC(=O)c1cc(Cl)c(C)c(Cl)c1)C(=O)CCl (configuration not stated) ; retrieve measured AC50.
15.9 µM (active)

Try the compound CCC(C)Nc1c([N+](=O)[O-])cc(C(C)(C)C)cc1[N+](=O)[O-] (configuration not stated)
inactive

Try the compound CC(C)(C)C(O)/C(=C\c1ccc(Cl)cc1Cl)n1cncn1 (configuration not stated)
33.2 µM (active)

Try the compound `O=C(O)CCCOc1ccc(Cl)cc1Cl`
inactive

Try the compound `CC(C)OC(=O)Nc1cccc(Cl)c1`
inactive

Try the compound `Clc1ccccc1-c1nnc(-c2ccccc2Cl)nn1`
inactive

Try the compound CC1(C)C(C=C(Cl)Cl)C1C(=O)OC(C#N)c1ccc(F)c(Oc2ccccc2)c1 (configuration not stated)
inactive

----------
# Read-out: Plasminogen activator inhibitor-1 (PAI1), SERPINE1 (gene 5054)
# method: BSK_BE3C_PAI1: BioMAP Diversity Plus: BE3C Assay for Plasminogen activator inhibitor-1 (PAI1) Biomarker Activity (AID 2283037)
# conditionNotes: primary human bronchial epithelial cells; actives raise or lower the signal
The source made the active and inactive calls. Rule for the calls: active = hit-call score of the fitted dose curve at least 0.9, where 1 is the maximum; inactive = score below 0.9.
Would you mind answering with one of these outcomes? class 1 (active), class 0 (inactive)

As a guide, the following entries are already answered.
[
  {
    "compound": "O=S1OCC2C(CO1)C1(Cl)C(Cl)=C(Cl)C2(Cl)C1(Cl)Cl (configuration not stated)",
    "class": "class 1"
  },
  {
    "compound": "ClC1C(Cl)C(Cl)C(Cl)C(Cl)C1Cl (configuration not stated)",
    "class": "class 0"
  },
  {
    "compound": "CCOC1Oc2ccc(OS(C)(=O)=O)cc2C1(C)C (configuration not stated)",
    "class": "class 0"
  }
]

How did this test come out for `O=C(O)CCCOc1ccc(Cl)cc1Cl` ?
class 0

Try the compound `[2H]C1([2H])[n+]2ccccc2-c2cccc[n+]2C1([2H])[2H]`
class 0

Try the compound `CC(C)OC(=O)Nc1cccc(Cl)c1`
class 0

Try the compound `CNC(=O)/C=C(\C)OP(=O)(OC)OC`
class 0

Try the compound `CCS(=O)(=O)c1cccnc1S(=O)(=O)NC(=O)Nc1nc(OC)cc(OC)n1`
class 0

Try the compound `COC(=O)c1ccccc1S(=O)(=O)NC(=O)N(C)c1nc(C)nc(OC)n1`
class 0

----------
# Read-out: ABC Transporter (ABCB11), ABCB11 (gene 8647)
# method: LTEA_HepaRG_ABCB11: Life Technologies and Expression Analysis (LTEA) Assay for ABC Transporter (ABCB11) using HepaRG (AID 2283463)
# conditionNotes: mRNA level, 48 h; actives raise or lower the signal
The source made the active and inactive calls. Rule for the calls: active = hit-call score of the fitted dose curve at least 0.9, where 1 is the maximum; inactive = score below 0.9.
Would you mind answering with one of these outcomes? active, inactive

As a guide, the following entries are already answered.
[
  {
    "compound": "CC[C@H](C)[C@H]1O[C@]2(C=C[C@@H]1C)C[C@@H]1C[C@@H](C/C=C(\\C)[C@@H](O[C@H]3C[C@H](OC)[C@@H](O[C@H]4C[C@H](OC)[C@@H](O)[C@H](C)O4)[C@H](C)O3)[C@@H](C)/C=C/C=C3\\CO[C@@H]4[C@H](O)C(C)=C[C@@H](C(=O)O1)[C@]34O)O2 (tested in a mixture with another compound)",
    "class": "active"
  },
  {
    "compound": "CCOCN(C(=O)CCl)c1c(C)cccc1CC",
    "class": "active"
  }
]

How did this test come out for `COP(=O)(OC)OC=C(Cl)Cl` ?
inactive

Try the compound `O=C(Nc1ccccc1)Nc1cnns1`
active

Try the compound `C#CCN1C(=O)COc2cc(F)c(N3C(=O)C4=C(CCCC4)C3=O)cc21`
active

----------
# Read-out: ABC Transporter (ABCC2), ABCC2 (gene 1244)
# method: LTEA_HepaRG_ABCC2: Life Technologies and Expression Analysis (LTEA) Assay for ABC Transporter (ABCC2) using HepaRG (AID 2283464)
# conditionNotes: mRNA level, 48 h; actives raise or lower the signal
The source made the active and inactive calls. The calls were made as follows: active = hit-call score of the fitted dose curve at least 0.9, where 1 is the maximum; inactive = score below 0.9.
Would you mind answering with one of these outcomes? active, inactive

[
  {
    "molecule": "CNC(=O)Oc1cccc(N=CN(C)C)c1",
    "class": "inactive"
  },
  {
    "molecule": "O=[N+]([O-])/N=C1\\NCCN1Cc1ccc(Cl)nc1",
    "class": "active"
  },
  {
    "molecule": "Oc1ccc(Cl)cc1Cc1ccccc1",
    "class": "inactive"
  },
  {
    "molecule": "CC(C)OC(=O)Nc1cccc(Cl)c1",
    "class": "inactive"
  },
  {
    "molecule": "O=C(O)C(F)(F)C(F)(F)C(F)(F)C(F)(F)C(F)(F)C(F)(F)C(F)(F)F",
    "class": "inactive"
  },
  {
    "molecule": "CC1(c2ccc(Oc3ccccc3)cc2)OC(=O)N(Nc2ccccc2)C1=O (configuration not stated)",
    "class": "active"
  }
]

From here, focus on the item given below.
How did this test come out for CC(C)(C)C(O)/C(=C\c1ccc(Cl)cc1Cl)n1cncn1 (configuration not stated) ?
active

Every entry's value here was drawn from PubChem BioAssay (EPA / NIEHS).
